These entries and their values trace back to patent US9029366B2.

Assayed system: human mGluR5 (Homo sapiens, UniProt P41594)
Sequence (P41594 21-1180 isoform P41594-2 limits assumed): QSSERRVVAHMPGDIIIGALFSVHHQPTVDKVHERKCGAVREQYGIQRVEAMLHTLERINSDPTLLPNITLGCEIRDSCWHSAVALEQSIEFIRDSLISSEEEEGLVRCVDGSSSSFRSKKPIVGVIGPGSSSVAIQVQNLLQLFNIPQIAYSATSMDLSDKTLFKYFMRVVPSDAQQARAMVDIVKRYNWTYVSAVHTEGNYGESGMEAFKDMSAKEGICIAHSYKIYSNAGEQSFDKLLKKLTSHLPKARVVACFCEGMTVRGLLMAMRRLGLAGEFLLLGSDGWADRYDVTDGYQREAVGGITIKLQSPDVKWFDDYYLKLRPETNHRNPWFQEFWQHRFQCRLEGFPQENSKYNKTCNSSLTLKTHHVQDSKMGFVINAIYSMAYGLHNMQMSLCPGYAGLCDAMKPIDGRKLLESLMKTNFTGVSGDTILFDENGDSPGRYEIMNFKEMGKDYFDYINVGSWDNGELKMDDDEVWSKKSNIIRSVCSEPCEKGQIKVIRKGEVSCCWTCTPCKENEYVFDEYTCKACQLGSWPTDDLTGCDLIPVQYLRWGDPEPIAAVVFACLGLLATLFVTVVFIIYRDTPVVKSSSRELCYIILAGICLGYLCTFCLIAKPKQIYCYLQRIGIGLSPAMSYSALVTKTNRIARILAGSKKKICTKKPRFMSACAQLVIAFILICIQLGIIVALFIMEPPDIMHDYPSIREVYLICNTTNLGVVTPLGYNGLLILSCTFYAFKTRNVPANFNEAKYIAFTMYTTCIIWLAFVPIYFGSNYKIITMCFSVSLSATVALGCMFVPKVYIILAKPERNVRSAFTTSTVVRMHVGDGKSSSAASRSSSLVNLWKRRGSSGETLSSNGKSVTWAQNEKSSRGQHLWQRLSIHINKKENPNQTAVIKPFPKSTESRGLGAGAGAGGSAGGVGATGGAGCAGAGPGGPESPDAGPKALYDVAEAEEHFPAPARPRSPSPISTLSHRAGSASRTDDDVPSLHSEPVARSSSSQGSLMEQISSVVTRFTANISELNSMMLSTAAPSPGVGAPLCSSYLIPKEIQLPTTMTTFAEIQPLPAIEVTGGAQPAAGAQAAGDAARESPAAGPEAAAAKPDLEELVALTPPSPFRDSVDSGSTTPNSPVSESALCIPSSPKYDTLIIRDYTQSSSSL
Run description: Cell-based functional Ca2+ mobilization assay (FDSS), potentiation of glutamate EC20 response, HEK293A cells transfected with human mGluR5a (H10H or H12H cell line)
Test context: pEC50, H10H cell line expressing recombinant human mGluR5; in presence of glutamate EC20; ** = compound is an antagonist
Endpoint: EC50 (µM)
Answers are plain numbers, in µM.

In: Form entry - test system: human mGluR5 (Homo sapiens, UniProt P41594); read-out: EC50; compound: O=C(c1ccco1)N1CCn2nc(OCc3ccccc3)cc2C1
Out: 0.324

====

Assayed system: human mGluR5 (Homo sapiens, UniProt P41594)
Run description: Cell-based functional Ca2+ mobilization assay (FDSS), potentiation of glutamate EC20 response, HEK293A cells transfected with human mGluR5a (H10H or H12H cell line)
Test context: H10H cell line expressing recombinant human mGluR5; in presence of glutamate EC20; ** = compound is an antagonist; read-out: pEC50 (converted)
Please respond with 1 when measured EC50 is strictly beneath 300 nM, and with -1 in all other cases.

Illustrative cases are given below, each with its answer.
- Molecule: "O=C(c1ccc(F)cc1F)N1CCn2nc(OCc3ccccc3)cc2C1 [Example B102]"
  Assigned label: 1
- Molecule: "Cc1cccc(COc2cc3n(n2)CCN(C(=O)c2ccc(F)cc2)C3)c1 [Example B13]"
  Assigned label: -1
- Molecule: "Cn1c(Cl)ccc1C(=O)N1CCn2nc(OCc3cccc(F)c3)cc2C1 [Example B80]"
  Assigned label: 1
- Molecule: "O=C(c1ccc(F)cc1)N1CCn2nc(OCc3ccccc3F)cc2C1 [Example B11]"
  Assigned label: 1
- Molecule: "O=C(c1ccc(F)cc1)N1CCn2nc(OCc3ccncc3)cc2C1 [Example B20]"
  Assigned label: -1

Next:
In: EC50 strictly < 300 nM for this molecule? O=C(c1ccc(F)cc1)N1CCCn2nc(OCc3ccncc3)cc2C1 [Example B89]
Out: -1
